Consider the following pIC50 values measured on yeast HSP90 (Saccharomyces cerevisiae, UniProt P02829).
Sequence (P02829 whole entry): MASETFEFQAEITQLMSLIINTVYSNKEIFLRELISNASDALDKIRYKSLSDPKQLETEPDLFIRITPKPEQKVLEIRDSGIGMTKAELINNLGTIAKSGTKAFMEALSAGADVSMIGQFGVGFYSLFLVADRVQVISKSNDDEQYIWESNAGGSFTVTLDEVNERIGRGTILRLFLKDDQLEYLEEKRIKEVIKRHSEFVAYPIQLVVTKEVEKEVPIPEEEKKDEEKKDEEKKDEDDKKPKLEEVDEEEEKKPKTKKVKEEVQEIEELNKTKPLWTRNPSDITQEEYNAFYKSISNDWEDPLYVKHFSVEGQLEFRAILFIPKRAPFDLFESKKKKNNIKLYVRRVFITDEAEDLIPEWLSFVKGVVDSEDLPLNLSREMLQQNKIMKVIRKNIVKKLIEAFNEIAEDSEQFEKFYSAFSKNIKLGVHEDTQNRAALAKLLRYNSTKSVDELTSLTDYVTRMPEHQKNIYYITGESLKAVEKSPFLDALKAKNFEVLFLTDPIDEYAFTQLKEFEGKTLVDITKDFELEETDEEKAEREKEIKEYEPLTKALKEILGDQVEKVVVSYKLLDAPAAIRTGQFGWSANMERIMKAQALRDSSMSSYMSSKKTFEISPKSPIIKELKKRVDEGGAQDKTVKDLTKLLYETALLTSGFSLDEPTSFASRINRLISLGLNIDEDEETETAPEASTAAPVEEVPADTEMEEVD
pIC50: −log10 of the molar value.

Field: example entries. Status: answers known.
Cc1cc(O)cc(O)c1-c1onc(C(F)(F)F)c1-c1cscn1 [Example 12d]    > 4.30
COc1ccc(-c2c(C)noc2-c2cc(-c3cccnc3)c(O)cc2O)cc1    < 4.30
Cc1cc(O)cc(O)c1-c1oncc1-c1csc(-c2ccccc2)n1 [Example 12c]    > 4.30

Each molecule below has a reported value. Please supply its pIC50.
1. COc1ccc(-c2c(C)noc2-c2cc(C(=S)Nc3ccccc3)c(O)cc2O)cc1
2. Cc1noc(-c2ccc(O)cc2O)c1-c1ccc2c(c1)OCCO2
3. COc1ccc(-c2c(C)noc2-c2cc(C=O)c(O)cc2O)cc1
4. Oc1ccc(Cl)cc1-c1oncc1-c1ccc2c(c1)OCCO2
5. COc1ccc(-c2cnoc2-c2cc(Cl)c(O)cc2O)cc1OC
6. Cc1noc(-c2cc(Cl)c(O)cc2O)c1-c1ccccc1
7. CCCCCc1noc(-c2ccc(O)cc2O)c1-c1ccc(OC)cc1

< 4.30
< 4.30
< 4.30
< 4.30
< 4.30
> 4.30
> 4.30

Each molecule below has a reported value. Please supply its pIC50.
1. COc1ccc(-c2c(C)noc2-c2cc(C(OC)c3ccccc3)c(O)cc2O)cc1 (stereo not shown)
2. Cc1noc(-c2ccc(O)cc2O)c1-c1ccc(F)cc1
3. CCc1cc(-c2oncc2-c2ccc(OC)c(OC)c2)c(O)cc1O
4. COc1ccc(-c2c(C)noc2-c2cc(C(=O)Nc3ccccc3OC)c(O)cc2O)cc1
5. Oc1cc(O)c(-c2oncc2-c2ccc(Br)cc2)cc1Cl [Example 12a]
6. Oc1ccccc1-c1oncc1-c1ccc2c(c1)OCCO2

1. > 4.30
2. > 4.30
3. > 4.30
4. > 4.30
5. > 4.30
6. < 4.30
